systemUnderTest: human ErbB2, full length, on cells (B300.19/hErbB2 clone #44; MCF7; BT474; SKBR3) (human)
measurementLabel: N1 EC50 (ng/ml), inhibition of BT474 cell proliferation (ng/mL)
The reply should be a number in ng/mL, with the unit left off.

Examples with answers:
1. monoclonal antibody 1.39 (antibody, V domains shown) VH: QLQLQESGPGLVKPSETLSLTCTVSGGSISSSTYYWGWIRQPPGKGLEWIGTIYYSGSTYYNPSLKSRVTISVDTSKNQFSLKLNSVTAADTAVYYCARHHWVFDYWGQGTLVTVSS VL: EIVLTQSPDFLSVTPKEKVTITCRASQIIGSSLHWYQQKPDQSPKLLIKYASQSFSGVPSRFSGSGSGTDFTLTLNSLEAEDAATYYCHQSTILPWTFGQGTKVEIK
156
2. monoclonal antibody 1.14.1 (antibody, V domains shown) VH: QLQLQESGPGLVKPSETLSLTCTVSGDSISSFIYYWGWIRQPPGKGLEWIGTIYYSGSTYYNPSLKSRVTISVDTSKNQFSLKLRSVTAADTAVYYCARHHWVFDYWGQGTQVTVSS VL: DIVLTQFPDFQSVTPKEKVTITCRASQVIGSSLHWYQQKPDQSPKLLIKYASQSFSGVPSRFSGSGSGTDFTLTINSLEVEDAATYYCHQSTILPWTFGQGTKVEVK
136

Q: GET /values?readout=N1 EC50 (ng/ml), inhibition of BT474 cell proliferation&item= monoclonal antibody 1.96 (antibody, V domains shown) VH: EVQLVESGGGLVQPGGSLRLSCAASGFTFSSYWMSWVRQAPGKGLEWVANIKQDGSEKYYVDSVKGRFTISRDNAKNSLYLQMNSLRAEDTAVYYCARWGVFGSGSYYIPFDYWGQGTLVTVSS VL: DIQMTQSPSSLSASVGDRVTITCRASHSITRYINWYQQKPGKAPNLLIYAASSLQSGVPSRFSGSGSGTDFTLTISSPQPEDFATYYCQQSYSSPPITFGQGTRLEIK
Ans: 131
